The measurements presented in this section are drawn from ChEMBL document CHEMBL2424636.

The entries below are paired with their reported growth at 10 µM.
# System: HOP-92
# TEST_NAME: Cytotoxicity against human HOP92 cells assessed as cell growth at 10^-5 M after 48 hrs by SRB assay
# Type: functional
# TEST_CONTEXT: HOP-92, 48 h, read-out: Activity
OBSERVED_PROPERTY: growth at 10 µM (%)

>>> test_value("COc1cccc(NC(=O)c2nnn(-c3ccc4noc(-c5ccc(Cl)cc5)c4c3)c2C)c1")
61.5
>>> test_value("Cc1ccc(-n2nnc(C(=O)Nc3cc(Cl)ccc3Cl)c2N)cc1")
-3.42
>>> test_value("CCc1c(C(=O)Nc2ccccc2Cl)nnn1-c1ccc2noc(-c3ccccc3)c2c1")
58.4
>>> test_value("CCc1nnc(NC(=O)c2nnn(-c3ccc(C)cc3)c2N)s1")
71.5
>>> test_value("COc1ccc(NC(=O)c2nnn(-c3cccc(C(F)(F)F)c3)c2N)c(OC)c1")
77.3
>>> test_value("COc1ccc(NC(=O)c2nnn(-c3ccc(C)cc3)c2N)cc1")
69.4
>>> test_value("Cc1cccc(C)c1NC(=O)c1nnn(-c2ccc(F)cc2)c1N")
76.8

----------
# Tested on: UO-31
# TEST_NAME: Cytotoxicity against human UO31 cells assessed as cell growth at 10^-5 M after 48 hrs by SRB assay
# Type: functional
# TEST_CONTEXT: UO-31, 48 h, read-out: Activity
OBSERVED_PROPERTY: growth at 10 µM (%)

>>> test_value("Cc1ccc(-n2nnc(C(=O)Nc3cc(Cl)ccc3Cl)c2N)cc1")
-7.62
>>> test_value("Cc1c(C(=O)NCc2ccco2)nnn1-c1ccc2noc(-c3ccc(Cl)cc3)c2c1")
52
>>> test_value("Cc1c(C(=O)Nc2cccc(C(F)(F)F)c2)nnn1-c1ccc2noc(-c3ccccc3)c2c1")
78.5
>>> test_value("CCc1c(C(=O)Nc2ccc(Cl)cc2)nnn1-c1ccc2noc(-c3ccccc3)c2c1")
67.8
>>> test_value("COc1ccccc1-n1nnc(C(=O)Nc2ncc(Cc3ccccc3)s2)c1C")
73.3
>>> test_value("CCc1c(C(=O)Nc2cccc(Cl)c2)nnn1-c1ccc2noc(-c3ccccc3)c2c1")
82.6
>>> test_value("Cc1ccc(-n2nnc(C(=O)Nc3ncc(Cc4cccc(Cl)c4)s3)c2C)cc1")
70.8

----------
# System: RPMI-8226
# TEST_NAME: Cytotoxicity against human RPMI8226 cells assessed as cell growth at 10^-5 M after 48 hrs by SRB assay
# Format: functional
# TEST_CONTEXT: RPMI-8226, 48 h, read-out: Activity
OBSERVED_PROPERTY: growth at 10 µM

>>> test_value("Nc1c(C(=O)Nc2ccc(F)cc2)nnn1-c1cccc(C(F)(F)F)c1")
"81.4%"
>>> test_value("Cc1ccccc1-n1nnc(C(=O)Nc2ccc(Cl)cc2Cl)c1N")
"59.6%"
>>> test_value("CCc1c(C(=O)Nc2ccccc2Cl)nnn1-c1ccc2noc(-c3ccccc3)c2c1")
"76.2%"
>>> test_value("Cc1c(C(=O)NCc2ccco2)nnn1-c1ccc2noc(-c3ccc(Cl)cc3)c2c1")
"65.3%"
>>> test_value("CCc1ccc(NC(=O)c2nnn(-c3ccc(OC)cc3)c2N)cc1")
"60.9%"
>>> test_value("Cc1ccc(-n2nnc(C(=O)Nc3ncc(Cc4cccc(Cl)c4)s3)c2C)cc1")
"62.7%"
